A collection of molecules and their measured GI50
# Tested on: SNB-75
# test.description: NCI tumour cell line growth inhibition, 48 h
Calls of active or inactive are those of the source. No stated cut-off is given here; in the data, active = GI50 up to about 1.1 µM and inactive = higher.

The cases that follow already have their GI50 on record.
{"columns": ["molecule", "experimental.value"],
 "data": [
  ["CC(=O)OCC1OC(n2c(=O)[nH]c(=O)c3sccc32)C(Br)C1OC(C)=O (stereo not given)", "> 100 µM (inactive)"],
  ["CC1(C)CC(=O)C(C(=O)Nc2cccs2)=C(O)C1", "25.2 µM (inactive)"],
  ["Cc1c(C(=O)OCc2ccccc2)[n+]([O-])c2cc(F)c(F)cc2[n+]1[O-]", "2.7 µM (inactive)"],
  ["CC1=C2C(O)C(C(C)C(=O)NC(C)C)CCC2(C)C=CC1=O (stereo not given)", "> 100 µM (inactive)"],
  ["O=[N+]([O-])c1ccc(NC(=S)Nc2ccccn2)cc1", "18 µM (inactive)"],
  ["CC1(C)[N+]([O-])=[N+]([O-])C1(C)O (stereo not given)", "> 100 µM (inactive)"],
  ["C[C@]12CCC(=O)C=C1CC[C@@H]1[C@@H]2C(=O)C[C@@]2(C)[C@H]1CC[C@]2(O)C(=O)CO", "> 100 µM (inactive)"],
  ["CC1=C(C(=O)CC(=O)C(=O)Nc2ccc(C)c(C)c2)Sc2ccccc2N1", "> 100 µM (inactive)"]
]}

Find GI50 (SNB-75) for the entry `C=C1C[C@@H](O)[C@@H](Br)C(C)(C)[C@@]12C=CC(=O)CC2`
> 63.2 µM (inactive)

Find GI50 (SNB-75) for the entry `CCOC(=O)/C=C(/C(=O)OCC)n1cnc2c(=O)[nH]c(NC(C)=O)nc21`
> 100 µM (inactive)
